# System: Fibroblast
# assay_details: Incucyte cell viability with human fibroblast; further: unitless GR value; below 1 slowed growth and below 0 cell loss
# Format: toxicity, cell-based
# assay_setup: 24 h, 10 µM, compound concentration 10 uM, replicate number 1, timepoint 24 hours
Each entry below lists one item and its recorded Growth Rate value.
// no unit, no text: just the number

Solved entries (count: 5):
- compound: "Cn1cnc(-c2cc3nccc(Oc4ccc(NC(=S)NC(=O)Cc5ccccc5)cc4F)c3s2)c1"
  outcome_measure: "Growth Rate"
  observed: 0.31
- compound: "CN[C@@H]1C[C@H]2O[C@@](C)([C@@H]1OC)n1c3ccccc3c3c4c(c5c6ccccc6n2c5c31)C(=O)NC4"
  outcome_measure: "Growth Rate"
  observed: -0.13
- compound: "CCc1ccccc1C(=O)Nc1n[nH]c2c(C)c(F)c(C3C(C#N)=C(C)N(C)C(C)=C3C#N)cc12"
  outcome_measure: "Growth Rate"
  observed: 0.56
- compound: "O=C(NCc1ccc(F)cc1)N1CCN2C(=O)OC(c3ccccc3)(c3ccccc3)C2C1 (stereo not drawn)"
  outcome_measure: "Growth Rate"
  observed: 0.67
- compound: "CC(C)c1c(NC(=O)Nc2ccc(Cl)cc2)c(=O)n(-c2ccccc2)n1C"
  outcome_measure: "Growth Rate"
  observed: 0.69

Lookup result for CC(C)Cc1ccc([C@@H](C)C(=O)NS(C)(=O)=O)cc1 ; measured Growth Rate: 0.06

Looking up O=C1[C@H](Cc2ccc(O)cc2)N2C(=O)CCN(C(=O)NCc3ccccc3)[C@H]2CN1Cc1cccc2ccccc12 , I found its Growth Rate recorded as -0.54

The measured Growth Rate associated with O=S(=O)(c1ccccc1)N(CC(F)(F)F)c1ccc(C(O)(C(F)(F)F)C(F)(F)F)cc1 reads -0.32

###

# Tested on: U2OS
# assay_details: Incucyte cell viability with U2OS; further: unitless GR value; below 1 slowed growth and below 0 cell loss
# Type: toxicity, cell-based
# assay_setup: human, 12 h, 10 µM, compound concentration 10 uM, replicate number 2, timepoint 12 hours
Entries and their Growth Rate
Answer with a number only.

- molecule: "C[C@@H](O[C@H]1OCCN(Cc2n[nH]c(=O)[nH]2)[C@H]1c1ccc(F)cc1)c1cc(C(F)(F)F)cc(C(F)(F)F)c1 [APREPITANT]"
  observed: 0.65
- molecule: "CO/C1=C/C(C)=C\\[C@@H](C)[C@@H](O)[C@@H](C)C/C(C)=C\\C=C/[C@H](OC)C([C@@H](C)[C@@H](O)[C@H](C)[C@@]2(O)C[C@@H](O)[C@H](C)[C@@H](C(C)C)O2)OC1=O (some centres undefined)"
  observed: 0.39
- molecule: "c1cc(OCCCN2CCCCC2)ccc1CN1CCCCC1"
  observed: 0.92

Switching to the query record.
// field: Growth Rate; key: Br.Br.N=C(N)NCCSC(=N)N ; value = 0.99

###

# System: Fibroblast
# assay_details: Incucyte cell viability with human fibroblast; further: unitless GR value; below 1 slowed growth and below 0 cell loss
# Format: toxicity, cell-based
# assay_setup: 0 h, 10 µM, compound concentration 10 uM, replicate number 1, timepoint 0 hours
Answer false (0) if Growth Rate is under -0.1, and true (1) if it is -0.1 or more.

Worked examples follow.
- molecule: "CC(C)NCC(O)COc1cccc2[nH]ccc12 (stereo not given)"
  discrete_label: "true (1)"
- molecule: "O=C(O)CCn1c2c(c3ccccc31)C[C@H](NS(=O)(=O)c1ccc(F)cc1)CC2"
  discrete_label: "false (0)"
- molecule: "O=c1nc2[nH]c3ccccc3nc-2c(=O)[nH]1"
  discrete_label: "false (0)"
- molecule: "N#Cc1cc2c(OCC(O)CN3CCN(C(c4ccccc4)c4ccccc4)CC3)cccc2[nH]1 (racemic)"
  discrete_label: "false (0)"

# ---- query molecule ----
Lookup: Assess whether reported Growth Rate for CC(C)c1c(NC(=O)Nc2ccc(Cl)cc2)c(=O)n(-c2ccccc2)n1C sits at -0.1 or higher.
Found: true (1)

###

# Test system: Fibroblast
# assay_details: Incucyte cell viability with human fibroblast; further: unitless GR value; below 1 slowed growth and below 0 cell loss
# Assay type: toxicity, cell-based
# assay_setup: 18 h, 10 µM, compound concentration 10 uM, replicate number 1, timepoint 18 hours
Growth Rate for assorted compounds
Lab note: write the figure by itself, no unit.

- compound: "Cc1c(C(=O)Nc2ccc(N3C[C@@H](C)O[C@@H](C)C3)nc2)cccc1-c1ccc(OC(F)(F)F)cc1"
  test_system: "Fibroblast"
  Growth Rate: 0.13
- compound: "O=C1COc2nccc(-c3ccccc3F)c2CN1Cc1cc(C(F)(F)F)cc(C(F)(F)F)c1"
  test_system: "Fibroblast"
  Growth Rate: 0.58
- compound: "C[C@H](N)Cn1ccc2cc(F)c(Cl)cc21.O=C(O)/C=C/C(=O)O"
  test_system: "Fibroblast"
  Growth Rate: 0.6

Please fill in: Growth Rate reported for N[C@@]1(C(=O)O)CC[C@H]2[C@H](C(=O)O)[C@H]21 = 0.57

Quick note, Growth Rate for CC(C)CC(=O)Nc1cncc(-c2ccc3[nH]nc(-c4nc5c(-c6cccc(F)c6)cncc5[nH]4)c3c2)c1 landed at 0.73

Lab note: measured Growth Rate of CN1CCC(C(=O)c2cccc(NC(=O)c3c(F)cc(F)cc3F)n2)CC1 was 0.86

Reported Growth Rate ( CS(=O)(=O)N1CCCC(NC(=O)[C@H](CCC2CCCCC2)NC(=O)c2ccc(CNc3ncnc4c3nnn4-c3ccccc3)cc2)C1 (stereo partly drawn) ) = -0.48

The compound listed as CC(C)(C)c1ccc(S(=O)(=O)Nc2ccc(Cl)cc2C(=O)c2cc[n+]([O-])cc2)cc1 shows Growth Rate equal to 1

###

Growth Rate: recorded values
# System: Fibroblast
# assay_details: Incucyte cell viability with human fibroblast; further: unitless GR value; below 1 slowed growth and below 0 cell loss
# Type: toxicity, cell-based
# assay_setup: 12 h, 10 µM, compound concentration 10 uM, replicate number 1, timepoint 12 hours
Where a SMILES comes first, the peptide text is derived from it. [ ]: non-standard residue; d: D form. Arg(Me) = CNC(=N)NCCC[C@H](N)C(=O)O; d3Pal = N[C@H](Cc1cccnc1)C(=O)O; azaGly = NNC(=O)O

Example molecules with recorded Growth Rate:
- molecule: "Cl.FC(F)(F)c1ccc(N2CCNCC2)nc1Cl"
  Growth Rate: 0.59
- molecule: "COc1ccccc1N1CCN(C[C@@H](C(=O)NC(C)(C)C)c2ccccc2)CC1.Cl.Cl"
  Growth Rate: 0.69
- molecule: "Cc1cnc(CNCC2(F)CCN(C(=O)c3ccc(F)c(Cl)c3)CC2)nc1"
  Growth Rate: 0.81

# Growth Rate of C[S+](C)[O-] [DIMETHYL SULFOXIDE] = 0.81

For reference, reported Growth Rate for C[C@@H]1CN(Cc2ccc(F)cc2)CCN1C(=O)COc1ccc(Cl)cc1NC(N)=O [BX 471 FREE BASE] stands at -0.14

Record Cn1cc(-c2ccc3occ(-c4cccc(-c5ccncc5)c4)c3n2)cn1 . Reported Growth Rate: -0.95

Just so you know, measured Growth Rate for CNC(=N)NCCC[C@H](NC(=O)[C@H](CC(C)C)NC(=O)NNC(=O)[C@H](Cc1ccccc1)NC(=O)[C@H](CO)NC(=O)[C@H](CC(N)=O)NC(=O)[C@@H](Cc1cccnc1)NC(=O)[C@H](N)Cc1ccc(O)cc1)C(=O)NCC(N)=O [KISS1-543] (H-[dY][d3Pal]NSF[azaGly]L[Arg(Me)]G-NH2) came out at 0.41

response.value for O=C(Nc1cc(-c2ccccc2)nn1-c1ccccc1F)c1ccc([N+](=O)[O-])cc1 (field: Growth Rate) = 0.25

###

# System: U2OS
# assay_details: Incucyte cell viability with U2OS; further: unitless GR value; below 1 slowed growth and below 0 cell loss
# Format: toxicity, cell-based
# assay_setup: human, 0 h, 10 µM, compound concentration 10 uM, replicate number 1, timepoint 0 hours
Please enter label 1 where Growth Rate is greater than or equal to -0.1, and label 0 where it is lower.

Some solved cases for reference:
- compound: "Cc1ccccc1C(=O)Nc1ccc(C(=O)N2CCCC(N(C)C)c3ccccc32)cc1.Cl (centres undefined)"
  discrete_label: "label 1"
- compound: "CC(C)c1noc(N2CCC(COc3ccc(-c4ccc(S(C)(=O)=O)cc4)nc3)CC2)n1"
  discrete_label: "label 0"
- compound: "Cc1nn(C)c(C)c1-c1cccc2c1CC[C@H](N(C)C)C2"
  discrete_label: "label 0"
- compound: "CNC(=O)c1nn(C)c2c1C(C)(C)Cc1cnc(Nc3ccc(N4CCN(C)CC4)cc3)nc1-2"
  discrete_label: "label 0"
- compound: "CC(C)NCC(O)COc1cccc2[nH]ccc12 (centres undefined)"
  discrete_label: "label 0"

Lookup: Tell me whether Growth Rate is at least -0.1 here: CN[C@@H](C)C(=O)N[C@H](C(=O)N1CCC[C@H]1C(=O)Nc1snnc1-c1ccccc1)C1CCCCC1
Found: label 0

Lookup: Is it the case that CC(C)(O)C(=O)N1CCN(c2ccc(C(F)(F)F)c(C3=C(c4c[nH]c5ccccc45)C(=O)NC3=O)c2)CC1 has Growth Rate reaching or exceeding -0.1?
Found: label 0

Lookup: hey, is Growth Rate for this one >= -0.1? CC(=O)O[C@H]1C(=O)[C@@]2(C)[C@H]([C@H](OC(=O)c3ccccc3)[C@]3(O)C[C@H](OC(=O)[C@H](O)[C@@H](NC(=O)c4ccccc4)c4ccccc4)C(C)=C1C3(C)C)[C@]1(OC(C)=O)CO[C@@H]1C[C@@H]2O
Found: label 0

Lookup: Dear colleague, could you confirm whether CN(C)C(=O)Cn1cc(-c2ccc(-c3cncc4ccccc34)cc2)cn1 has Growth Rate at or above -0.1?
Found: label 0
